Origin of values: patent US11434203B2

- tested-target: soluble Aβ oligomers (Human A 1-42) (Homo sapiens)
- Construct: Human A 1-42 (China Peptide); purchased China Peptide
- Sequence (P05067 672-713): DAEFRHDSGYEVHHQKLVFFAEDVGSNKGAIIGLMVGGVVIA
- protocol-summary: Aβ aggregation assay (bis-ANS): reversal of aggregation of soluble Aβ oligomers
- Assay type: biochemical
- condition-parameters: Aβ oligomers induced with ZnSO4 (15 μM), bis-ANS fluorescence, compounds 0.1 to 120 μM for 30 min, pH 7.4; read-out: EC50 (μM), reversal of aggregation of soluble Aβ oligomers
value-type: EC50 (µM)

compound	u	measured-result
Oc1c(I)cc(F)c2cccnc12 [Compound 17, 5-fluoro-7-iodo-8-hydroxyquinoline]	µM	2.5
Oc1c(Cl)cc(F)c2cccnc12 [Compound 15, 7-chloro-5-fluoro-8-hydroxyquinoline]	µM	5.2
Oc1c(Cl)cc(Cl)c2ccc(COCCCCF)nc12	µM	2
Oc1c(Br)cc(F)c2cccnc12 [Compound 16, 7-bromo-5-fluoro-8-hydroxyquinoline]	µM	3.7
CN(Cc1cn(CCCCF)nn1)Cc1ccc2c(Cl)cc(Cl)c(O)c2n1	µM	2.8

1. Oc1c(F)cc(Cl)c2cccnc12 [Compound 12, 5-chloro-7-fluoro-8-hydroxyquinoline]
2. Oc1c(Cl)cc(Cl)c2ccc(COCCF)nc12
3. Oc1ccccc1/N=C/c1ccc(F)cc1
Order field: EC50 | Direction: descending (largest first) Your answer should be the labels, listed in the requested order.
3, 1, 2
(3: 15.4 µM, 1: 4.9 µM, 2: 2.4 µM)
